Provenance of the data: paper PMC11209699

- test: CCK-8 cell viability
- Format: cell-based
- applied conditions: human, HEK293T cells
metric name: IC50 at 48 h

The following compounds have reported results that may help.
COC(=O)[C@H](Cc1c[nH]c2ccccc12)NC(=O)/C=C/c1cn(-c2ccccc2)nc1-c1ccc2ccccc2c1 : > 20 µM
O=C(/C=C/c1cn(-c2cccc(Cl)c2)nc1-c1ccc(N2CCOCC2)cc1)N[C@@H](Cc1c[nH]c2ccccc12)C(=O)O : > 20 µM
O=C(/C=C/c1cn(-c2cccc(Cl)c2)nc1-c1ccc(O)cc1)N[C@@H](Cc1c[nH]c2ccccc12)C(=O)O : > 20 µM
COC(=O)[C@H](Cc1c[nH]c2ccccc12)NC(=O)/C=C/c1cn(-c2cccc(Cl)c2)nc1-c1ccc(O)cc1 : > 20 µM
Nc1ccc(-c2nn(-c3cccc(Cl)c3)cc2/C=C/C(=O)N[C@@H](Cc2c[nH]c3ccccc23)C(=O)O)cc1 : > 20 µM

[in] What does the record list as IC50 at 48 h for O=C(/C=C/c1cn(-c2ccccc2)nc1-c1ccc2ccccc2c1)N[C@@H](Cc1c[nH]c2ccccc12)C(=O)O ?
[out] > 20 µM

[in] For the compound Cc1c2c(nn1C)CSCc1cc(n(C)n1)CSc1cc(c3ccccc3c1)OCCCc1c(C(=O)O)n(C)c3c-2c(Cl)ccc13 [AZD5991, reference compound] , what IC50 at 48 h is on record?
[out] > 20 µM

[in] If you can, please state the reported IC50 at 48 h value of O=C(/C=C/c1cn(-c2cccc(Cl)c2)nc1-c1ccc(C2CCCCC2)cc1)N[C@@H](Cc1c[nH]c2ccccc12)C(=O)O .
[out] > 20 µM

[in] Requested read-out: IC50 at 48 h. Entry: COC(=O)[C@H](Cc1c[nH]c2ccccc12)NC(=O)/C=C/c1cn(-c2cccc(Cl)c2)nc1-c1ccc(N)cc1
[out] > 20 µM

[in] What measured IC50 at 48 h goes with COC(=O)[C@H](Cc1c[nH]c2ccccc12)NC(=O)/C=C/c1cn(-c2cccc(Cl)c2)nc1-c1ccc(N2CCOCC2)cc1 ?
[out] > 20 µM

[in] Requested read-out: IC50 at 48 h. Entry: COC(=O)[C@H](Cc1c[nH]c2ccccc12)NC(=O)/C=C/c1cn(-c2cccc(Cl)c2)nc1-c1ccc(C2CCCCC2)cc1
[out] > 20 µM

---

- test: stability in liver microsomes
- Format: in vitro ADME
- applied conditions: monkey, pooled monkey liver microsomes
metric name: half-life at 1.4 μM (min)
Return type: number; implicit unit min.

[in] Any idea what half-life at 1.4 μM was measured for COC(=O)[C@H](Cc1c[nH]c2ccccc12)NC(=O)/C=C/c1cn(-c2cccc(Cl)c2)nc1-c1ccc(O)cc1 ?
[out] 34.8

---

- System: H929 cells
- test: CCK-8 cell viability
- Format: cell-based
- applied conditions: Homo sapiens, NCI-H929, 48 h, read-out: cytotoxicity (IC50) H929
metric name: IC50 (µM)
# output: bare number, implied unit µM

COC(=O)[C@H](Cc1c[nH]c2ccccc12)NC(=O)/C=C/c1cn(-c2cccc(Cl)c2)nc1-c1ccc(C2CCCCC2)cc1 : 4.64

Attention now shifts to the item below.
[in] Requested field: IC50. Item: Cc1c2c(nn1C)CSCc1cc(n(C)n1)CSc1cc(c3ccccc3c1)OCCCc1c(C(=O)O)n(C)c3c-2c(Cl)ccc13 [AZD5991, reference compound]
[out] 0.05
